Target: T1, Seb1-RRM388-540 (tag cleaved) (Schizosaccharomyces pombe, UniProt Q9UTE3 388-540)
T1 sequence: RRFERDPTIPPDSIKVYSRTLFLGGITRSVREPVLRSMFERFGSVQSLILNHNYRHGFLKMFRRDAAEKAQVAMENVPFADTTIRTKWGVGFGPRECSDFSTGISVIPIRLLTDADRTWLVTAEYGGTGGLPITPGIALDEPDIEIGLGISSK
Experiment: fluorescence anisotropy; 25 mM Tris-HCl pH 8.0, 100 mM NaCl, 2 mM MgCl2, 1 mM DTT, 16.7% glycerol, 0.1% IGEPAL, 0.1 mg/ml tRNA, 2.5% RNasin, 25 C, 40 nM FAM-RNA
Conditions: protein: recombinant; tags: His6-SUMO removed with 3C protease; single strand
quantity: Kd (µM)
Answer with a number only, understood to be in µM.

Request: Any idea what Kd was measured for AUUAGUAAAA (ssRNA) [FAM-AUUAGUAAAA RNA] ?
Result: 1.84

Entry source: paper PMC5382271
